Test system: Escherichia coli
test.protocol: Antibacterial activity against Escherichia coli ATCC 25922 assessed as inhibition of bacterial growth; further: test concentration or dose not given here
Format: functional
metric: inhibition (INH) (%)
Give the value in % but do not write % after it.

# input molecule: Cc1c(C[C@@H]2[C@@]3(C)CCCC(C)(C)[C@@H]3CC[C@@]2(C)O)c2ccccc2n1Cc1ccccc1 ; wanted: its inhibition (INH)
0

Same lookup for C=CCCn1c(C)c(C[C@@H]2[C@@]3(C)CCCC(C)(C)[C@@H]3CC[C@@]2(C)O)c2ccccc21 , please.
0

What do you get for Cc1c(C[C@@H]2[C@@]3(C)CCCC(C)(C)[C@@H]3CC[C@@]2(C)O)c2ccccc2n1Cc1ccc(F)cc1 ?
0

Okay, and Cc1c(C[C@@H]2[C@@]3(C)CCCC(C)(C)[C@@H]3CC[C@@]2(C)O)c2ccccc2n1-c1ccc(F)cc1 ?
0

Another molecule to look at: Cc1ccc(-n2c(C)c(C[C@@H]3[C@@]4(C)CCCC(C)(C)[C@@H]4CC[C@@]3(C)O)c3ccccc32)cc1
0

CC1=CC[C@H]2C(C)(C)CCC[C@]2(C)[C@H]1Cc1c(C)[nH]c2ccccc12 ?
0

Next: Cc1c(C[C@@H]2[C@@]3(C)CCCC(C)(C)[C@@H]3CC[C@@]2(C)O)c2ccccc2n1C
0
